Molecular target: Transthyretin (Homo sapiens)
Assay: Inhibition of wild type TTR aggregation expressed in Escherichia coli assessed as fibril formation at 7.2 uM after 72 hrs relative to untreated-control
Recorded inhibition determines the group label, using label 0: < 2%; label 1: ≥ 2% and < 30%; label 2: ≥ 30%

The examples below pair each entry with its known result.
entry smiles: O=C(O)c1ccccc1C(=O)Nc1cc(Br)c(O)c(Br)c1
class name: label 2
--
entry smiles: O=C(Nc1cc(Br)c(O)c(Br)c1)c1cccc(Br)c1
class name: label 1
--
entry smiles: O=C(Nc1cc(Br)c(O)c(Br)c1)c1cc(Cl)ccc1Cl
class name: label 0
--
entry smiles: O=C(Nc1cc(Br)c(O)c(Br)c1)c1ccc(Cl)cc1
class name: label 2
--
entry smiles: O=C(Nc1cc(Br)c(O)c(Br)c1)c1ccc(Br)cc1
class name: label 2

Consider COc1c(Br)cc(C(=O)Nc2cc(Br)c(O)c(Br)c2)cc1Br . To which inhibition class does it belong?
label 1

Okay, and O=C(Nc1cc(Br)c(O)c(Br)c1)c1cc(C(F)(F)F)cc(C(F)(F)F)c1 ?
label 2

Okay, and Cc1cccc(C(=O)Nc2cc(Br)c(O)c(Br)c2)c1 ?
label 1

Okay, and COc1c(F)cc(C(=O)Nc2cc(Br)c(O)c(Br)c2)cc1F ?
label 2

Okay, and Cc1cc(C)cc(C(=O)Nc2cc(Br)c(O)c(Br)c2)c1 ?
label 1

Okay, and O=C(Nc1cc(Br)c(O)c(Br)c1)c1cc(C(F)(F)F)ccc1C(F)(F)F ?
label 1

Okay, and O=C(Nc1cc(Br)c(O)c(Br)c1)c1cc(O)ccc1O ?
label 0

* * *

As shown below, each of these compounds has a reported inhibition value.
Target: UniProt:P02766
Assay: Inhibition of wild type TTR aggregation expressed in Escherichia coli assessed as fibril formation at 7.2 uM after 72 hrs relative to untreated-control
State just the number; it will be interpreted in %.

The following compounds have reported results that may help.
entry smiles: O=C(Nc1cc(Br)c(O)c(Br)c1)c1cc(Cl)cc(Cl)c1
parameter: inhibition
assay value: 2

entry smiles: O=C(Nc1cc(Br)c(O)c(Br)c1)c1c(F)cccc1F
parameter: inhibition
assay value: 3

entry smiles: O=C(Nc1cc(Br)c(O)c(Br)c1)c1cccc([N+](=O)[O-])c1
parameter: inhibition
assay value: 34

entry smiles: Cc1ccc(C(=O)Nc2cc(Br)c(O)c(Br)c2)cc1
parameter: inhibition
assay value: 49

entry smiles: O=C(O)c1ccc(C(=O)Nc2cc(Br)c(O)c(Br)c2)cc1
parameter: inhibition
assay value: 11

Now consider a different compound.
What measured inhibition goes with COc1cccc(OC)c1C(=O)Nc1cc(Br)c(O)c(Br)c1 ?
3

* * *

As shown below, each of these compounds has a reported inhibition value.
Target: Prostaglandin G/H synthase 1 (Homo sapiens)
Assay: Inhibition of COX1 assessed as inhibition of arachidonic acid conversion to prostaglandin-E2 release at 10 uM

The following compounds have reported results that may help.
entry smiles: COc1c(Br)cc(C(=O)Nc2cc(Br)c(O)c(Br)c2)cc1Br
inhibition: 23%

entry smiles: Cc1cccc(C)c1C(=O)Nc1cc(Br)c(O)c(Br)c1
inhibition: < 5%

entry smiles: Cc1ccccc1C(=O)Nc1cc(Br)c(O)c(Br)c1
inhibition: < 5%

What measured inhibition goes with O=C(Nc1cc(Br)c(O)c(Br)c1)c1ccccc1[N+](=O)[O-] ?
10%

Okay, and O=C(Nc1cc(Br)c(O)c(Br)c1)c1ccccc1Br ?
< 5%

Okay, and O=C(Nc1cc(Br)c(O)c(Br)c1)c1cc(F)cc(F)c1 ?
< 5%

Data origin, for the record: ChEMBL document CHEMBL1140932
